Experiment: In vivo pharmacokinetics test in mice
Settings: mouse, po; Intragastric, 3 mg/kg (table; text says 2 mg/kg), female Balb/c mice, plasma; read-out: Drug concentration in blood Cmax
measurement-label: Cmax
# output: number + unit

I have this molecule here, Cc1sc2c(c1C)C(c1ccc(Cl)cc1)=N[C@@H](CC(=O)Nc1ccc3c(c1)COC3=O)c1nnc(C)n1-2 , and I need its recorded Cmax. 930 nM

====

Target: BRD4-BD2 (Homo sapiens (Human))
Assay: BRD4 biochemical activity test (TR-FRET), BD2
Details: read-out: BRD4 Binding (BD2), IC50
Lab note - cut at 10 nM for IC50: Condition met if strictly below, Condition not met if not.

// known answers, use as guide
In [3]: df
Out[3]:
                                   compound        label_class
0  Cc1sc2c(c1C)C(c1ccc(Cl)cc1)=N[C@@H](CC(=O)Nc1ccc3c(c1)C(=O)NC31CC1)c1nnc(C)n1-2 [Compound 10]  Condition not met
1  Cc1sc2c(c1C)C(c1ccc(Cl)cc1)=N[C@@H](CC(=O)Nc1n[nH]c(=O)c3ccccc13)c1nnc(C)n1-2 [Compound 8]  Condition not met
2  Cc1cc2c(cc1NC(=O)C[C@@H]1N=C(c3ccc(Cl)cc3)c3c(sc(C)c3C)-n3c(C)nnc31)COC2 [Compound 26]  Condition not met

Given the entry Cc1sc2c(c1C)C(c1ccc(Cl)cc1)=N[C@@H](CC(=O)Nc1ccc3c(c1)C1(CC1)C(=O)N3)c1nnc(C)n1-2 [Compound 9] , would its reported IC50 be below 10 nM? Condition not met

Consider next the compound Cc1sc2c(c1C)C(c1ccc(Cl)cc1)=N[C@@H](CC(=O)Nc1ccc3c(c1)C1(CC1)NC3=O)c1nnc(C)n1-2 [Compound 12] in the same way. Condition not met

Consider next the compound Cc1sc2c(c1C)C(c1ccc(Cl)cc1)=N[C@@H](CC(=O)Nc1ccc3c(c1)CC1(COC1)C3)c1nnc(C)n1-2 [Compound 27] in the same way. Condition met
